Molecular target: CDK2/CycE (Homo sapiens, UniProt P24941)
Construct: GST
Test: CDK2/CycE Kinase Assay
Details: histone IIIS substrate, 33P-ATP, 15 minutes at 22° C.
REPORTED_PROPERTY: IC50 (nM)
Hi! Could you send only the number? It should be in nM, unit omitted.

[[record]]
compound = "CCOC(=O)N=S(C)(=O)c1ccc(Nc2ncc(Br)c(N[C@H](C)C(C)(C)O)n2)cc1 (mixture of isomers) [Example 1.31]"
measurement_units = "nM"
numeric_value = 9

[[record]]
compound = "CCOC(=O)N=S(C)(=O)c1ccc(Nc2ncc(Br)c(N[C@H](C)C(C)(C)O)n2)cc1C (mixture of isomers) [Example 1.37]"
measurement_units = "nM"
numeric_value = 48

[[record]]
compound = "CCC(Sc1nc(Nc2ccc(S(C)(=N)=O)cc2)ncc1Br)C(C)(C)O (racemic) [Example 3.8]"
measurement_units = "nM"
numeric_value = 27

[[record]]
compound = "CCOC(=O)N=S(C)(=O)c1ccc(Nc2ncc(Br)c(N[C@H](C)[C@@H](C)O)n2)cc1C (mixture of isomers) [Example 1.38]"
measurement_units = "nM"
numeric_value = 78

[[record]]
compound = "Cc1cc(Nc2ncc(Br)c(N[C@H](C)[C@@H](C)O)n2)ccc1S(C)(=N)=O (mixture of isomers) [Example 1.60]"
measurement_units = "nM"
numeric_value = 4

[[record]]
compound = "CCOC(=O)N=S(C)(=O)c1ccc(Nc2ncc(Br)c(N[C@H](C)[C@@H](C)O)n2)cc1 (mixture of isomers) [Example 1.32]"
measurement_units = "nM"
numeric_value = 12


Measured IC50, CCC(C)Sc1nc(Nc2ccc(S(C)(=N)=O)cc2)ncc1Br (racemic) [Example 3.1] : 33

----------
Biological target: CDK2/CycE (Homo sapiens)
Construct: GST
Assay: CDK2/CycE Kinase Assay
Details: histone IIIS substrate, 33P-ATP, 15 minutes at 22° C.
This section presents compounds with their documented pIC50 values.
Field pIC50 (float): negative decimal logarithm of the concentration in molar.

Record excerpt, results attached:
[[record]]
compound = "C[C@@H](Nc1nc(Nc2ccc(S(=O)(CCO)=NS(=O)(=O)CC[Si](C)(C)C)cc2)ncc1Br)C(C)(C)O (mixture of isomers)"
reported_property = "pIC50"
numeric_value = 7.31

[[record]]
compound = "CN=S(C)(=O)c1ccc(Nc2ncc(Br)c(N[C@H](C)[C@@H](C)O)n2)cc1 (mixture of isomers) [Example 1.28]"
reported_property = "pIC50"
numeric_value = 8.15

[[record]]
compound = "CC(C)(O)CSc1nc(Nc2ccc(S(C)(=N)=O)cc2)ncc1Br (racemic)"
reported_property = "pIC50"
numeric_value = 8.10

[[record]]
compound = "CN=S(C)(=O)c1ccc(Nc2ncc(Br)c(N[C@H](C)[C@@H](C)O)n2)cc1 (mixture of isomers) [Example 1.30]"
reported_property = "pIC50"
numeric_value = 8.22


Sample CCOC(=O)N=S(C)(=O)c1ccc(Nc2ncc(Br)c(O[C@H](C)[C@@H](C)O)n2)cc1 (mixture of isomers) ; pIC50 observed: 7.85

----------
Target: VEGF receptor tyrosine kinase-2 (Homo sapiens)
Construct: GST; made in house; host or cells: baculovirus-infected insect cells (Sf9)
Sequence (P35968 20-1356): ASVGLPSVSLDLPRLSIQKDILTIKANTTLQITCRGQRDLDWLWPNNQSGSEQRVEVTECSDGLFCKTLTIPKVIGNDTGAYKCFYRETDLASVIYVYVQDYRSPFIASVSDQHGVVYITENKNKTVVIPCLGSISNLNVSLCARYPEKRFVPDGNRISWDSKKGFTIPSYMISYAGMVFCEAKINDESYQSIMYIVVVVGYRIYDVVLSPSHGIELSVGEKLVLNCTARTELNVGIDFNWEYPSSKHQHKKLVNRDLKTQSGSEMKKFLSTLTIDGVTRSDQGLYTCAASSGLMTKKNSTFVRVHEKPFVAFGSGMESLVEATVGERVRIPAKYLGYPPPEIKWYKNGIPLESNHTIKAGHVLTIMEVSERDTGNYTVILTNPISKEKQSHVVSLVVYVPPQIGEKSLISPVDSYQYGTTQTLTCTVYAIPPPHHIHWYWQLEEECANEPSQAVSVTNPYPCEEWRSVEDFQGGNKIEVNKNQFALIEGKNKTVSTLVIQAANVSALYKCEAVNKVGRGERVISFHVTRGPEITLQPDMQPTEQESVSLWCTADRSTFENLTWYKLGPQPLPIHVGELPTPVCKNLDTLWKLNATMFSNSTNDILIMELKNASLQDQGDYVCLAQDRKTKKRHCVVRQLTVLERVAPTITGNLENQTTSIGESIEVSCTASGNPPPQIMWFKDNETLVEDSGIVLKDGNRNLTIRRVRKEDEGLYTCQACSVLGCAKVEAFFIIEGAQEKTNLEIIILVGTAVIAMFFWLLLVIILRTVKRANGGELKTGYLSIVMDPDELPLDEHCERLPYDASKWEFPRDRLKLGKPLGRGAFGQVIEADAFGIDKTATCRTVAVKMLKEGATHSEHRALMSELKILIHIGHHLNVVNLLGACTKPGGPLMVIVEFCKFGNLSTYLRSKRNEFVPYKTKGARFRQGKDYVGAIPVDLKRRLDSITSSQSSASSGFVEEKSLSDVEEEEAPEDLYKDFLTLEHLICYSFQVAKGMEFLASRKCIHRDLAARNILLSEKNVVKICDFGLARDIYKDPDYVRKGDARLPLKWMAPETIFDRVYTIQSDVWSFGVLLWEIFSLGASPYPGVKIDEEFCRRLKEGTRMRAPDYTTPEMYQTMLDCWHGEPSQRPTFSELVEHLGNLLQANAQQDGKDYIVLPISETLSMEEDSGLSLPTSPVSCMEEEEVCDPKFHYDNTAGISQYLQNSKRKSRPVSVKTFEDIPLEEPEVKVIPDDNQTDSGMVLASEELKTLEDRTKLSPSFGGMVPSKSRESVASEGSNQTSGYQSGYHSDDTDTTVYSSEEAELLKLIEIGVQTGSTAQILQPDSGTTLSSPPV
Assay: VEGF Receptor-2 Kinase Assay
Type: biochemical
Details: poly-(Glu4Tyr) substrate, 33P-ATP, 10 minutes at 22° C.; read-out: VEGF-R2 IC50
In this section, each of the molecules is paired with its reported pIC50.
Reminder that pIC50 means the negative base-10 logarithm of the concentration expressed in mol/L.

Below: 3 molecules and their reported pIC50.
[[record]]
molecule = "C[C@@H](Nc1nc(Nc2ccc(S(=O)(CCO)=NS(=O)(=O)CC[Si](C)(C)C)cc2)ncc1Br)C(C)(C)O (mixture of isomers)"
measured_on = "VEGF receptor tyrosine kinase-2 (Homo sapiens)"
numeric_value = 6.80

[[record]]
molecule = "COc1cc(Nc2ncc(Br)c(N[C@H](C)C(C)(C)O)n2)ccc1S(C)(=N)=O (mixture of isomers)"
measured_on = "VEGF receptor tyrosine kinase-2 (Homo sapiens)"
numeric_value = 7.12

[[record]]
molecule = "CCOC(=O)N=S(C)(=O)c1ccc(Nc2ncc(Br)c(O[C@H](C)[C@@H](C)O)n2)cc1 (mixture of isomers)"
measured_on = "VEGF receptor tyrosine kinase-2 (Homo sapiens)"
numeric_value = 6.96


Measured pIC50, CCOC(=O)N=S(=O)(CC)c1ccc(Nc2ncc(Br)c(N[C@H](C)C(C)(C)O)n2)cc1 (mixture of isomers) : 7.03

For record CCOC(=O)N=S(=O)(CC)c1ccc(Nc2ncc(Br)c(N[C@H](C)[C@@H](C)O)n2)cc1 (mixture of isomers) the listed pIC50 is 7.04

----------
System: DU 145, hormone-independent human prostate cancer cells
Experiment: Proliferation assay, DU145
Format: cell-based
Settings: DU-145, 96 h, 4 days incubation, crystal violet
REPORTED_PROPERTY: pIC50
Reminder that pIC50 is minus the log10 of a molar concentration.

Solved entries (count: 5):
[[record]]
molecule = "C[C@@H](O)[C@@H](C)Oc1nc(Nc2ccc(S(C)(=N)=O)cc2)ncc1Br (mixture of isomers)"
reported_property = "pIC50"
numeric_value = 7.00

[[record]]
molecule = "COc1cc(Nc2ncc(Br)c(N[C@H](C)C(C)(C)O)n2)ccc1S(C)(=N)=O (mixture of isomers)"
reported_property = "pIC50"
numeric_value = 7.00

[[record]]
molecule = "COc1cc(Nc2ncc(Br)c(O[C@H](C)[C@@H](C)O)n2)ccc1S(C)(=N)=O (mixture of isomers)"
reported_property = "pIC50"
numeric_value = 6.89

[[record]]
molecule = "CCOC(=O)N=S(C)(=O)c1ccc(Nc2ncc(Br)c(N[C@H](C)[C@@H](C)O)n2)cc1C (mixture of isomers)"
reported_property = "pIC50"
numeric_value = 6.89

[[record]]
molecule = "CCOC(=O)N=S(C)(=O)c1ccc(Nc2ncc(Br)c(N[C@H](C)C(C)(C)O)n2)cc1C (mixture of isomers)"
reported_property = "pIC50"
numeric_value = 6.80


Then this molecule:
Bench note, DU 145, hormone-independent human prostate cancer cells: entry CCC(Sc1nc(Nc2ccc(S(C)(=N)=O)cc2)ncc1Br)C(C)(C)O (racemic) , its pIC50 = 6.52

----------
Molecular target: CDK1/CycB (Homo sapiens, UniProt P06493)
Construct: GST
Sequence (P06493 whole entry): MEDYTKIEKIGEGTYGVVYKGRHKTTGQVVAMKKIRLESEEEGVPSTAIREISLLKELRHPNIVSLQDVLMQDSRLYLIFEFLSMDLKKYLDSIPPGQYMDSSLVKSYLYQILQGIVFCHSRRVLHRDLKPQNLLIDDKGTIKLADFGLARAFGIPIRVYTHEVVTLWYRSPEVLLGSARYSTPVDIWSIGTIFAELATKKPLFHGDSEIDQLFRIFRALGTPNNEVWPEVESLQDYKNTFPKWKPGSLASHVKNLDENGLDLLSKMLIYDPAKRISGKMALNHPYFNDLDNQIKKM
Sequence (P14635 whole entry partner): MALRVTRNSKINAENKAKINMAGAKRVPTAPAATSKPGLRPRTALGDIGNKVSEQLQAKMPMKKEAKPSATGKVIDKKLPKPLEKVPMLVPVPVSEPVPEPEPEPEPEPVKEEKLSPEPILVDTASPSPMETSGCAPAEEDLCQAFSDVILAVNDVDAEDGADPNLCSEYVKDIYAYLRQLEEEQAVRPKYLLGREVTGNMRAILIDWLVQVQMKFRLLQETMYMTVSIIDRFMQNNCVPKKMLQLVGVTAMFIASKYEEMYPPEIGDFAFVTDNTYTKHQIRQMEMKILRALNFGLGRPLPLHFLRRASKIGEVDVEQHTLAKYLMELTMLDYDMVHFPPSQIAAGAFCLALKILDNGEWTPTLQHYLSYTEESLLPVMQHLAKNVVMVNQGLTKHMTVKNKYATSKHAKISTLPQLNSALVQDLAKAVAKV
Assay: CDK1/CycB Kinase Assay
Settings: histone IIIS substrate, 33P-ATP, 15 minutes at 22° C.
Entries and their IC50
Quick note: give the figure in nM, leave out the unit.

[[record]]
compound = "CCOC(=O)N=S(C)(=O)c1ccc(Nc2ncc(Br)c(O[C@H](C)[C@@H](C)O)n2)cc1 (mixture of isomers) [Example 1.40]"
reported_property = "IC50"
numeric_value = 21

[[record]]
compound = "C[C@@H](Nc1nc(Nc2ccc(S(=O)(CCO)=NS(=O)(=O)CC[Si](C)(C)C)cc2)ncc1Br)C(C)(C)O (mixture of isomers) [Example 1.12]"
reported_property = "IC50"
numeric_value = 160

[[record]]
compound = "CCOC(=O)N=S(C)(=O)c1ccc(Nc2ncc(Br)c(N[C@H](C)[C@@H](C)O)n2)cc1C (mixture of isomers) [Example 1.38]"
reported_property = "IC50"
numeric_value = 75


Lab note: measured IC50 of CCC(C)Sc1nc(Nc2ccc(S(C)(=N)=O)cc2)ncc1Br (racemic) [Example 3.1] was 97

For reference, reported IC50 for CCS(=N)(=O)c1ccc(Nc2ncc(Br)c(N[C@H](C)[C@@H](C)O)n2)cc1 (mixture of isomers) [Example 1.53] stands at 11

----------
Molecular target: CDK1/CycB (Homo sapiens, UniProt P06493)
Construct: GST
Assay: CDK1/CycB Kinase Assay
Settings: histone IIIS substrate, 33P-ATP, 15 minutes at 22° C.
pIC50: −log10 of the molar value.
Note to self: values exactly at 8 are Condition met. So pIC50 at or above 8 is Condition met, below is Condition not met.

[[record]]
molecule = "C[C@@H](O)[C@@H](C)Nc1nc(Nc2ccc(S(=O)(CCO)=NS(=O)(=O)CC[Si](C)(C)C)cc2)ncc1Br (mixture of isomers) [Example 1.16]"
cat = "Condition not met"


q: Kindly determine if pIC50 recorded for C[C@@H](Nc1nc(Nc2ccc(S(=N)(=O)C3CCCC3)cc2)ncc1Br)C(C)(C)O (mixture of isomers) [Example 1.11] is above or exactly 8.
a: Condition not met

q: // inclusive: pIC50 at least 8? input: CCS(=N)(=O)c1ccc(Nc2ncc(Br)c(N[C@H](C)[C@@H](C)O)n2)cc1 (mixture of isomers) [Example 1.51]
a: Condition met

q: Check the entry CCOC(=O)N=S(C)(=O)c1ccc(Nc2ncc(Br)c(N[C@H](C)C(C)(C)O)n2)cc1 (mixture of isomers) [Example 1.31] : does pIC50 equal or exceed 8?
a: Condition not met

q: Given CCOC(=O)N=S(C)(=O)c1ccc(Nc2ncc(Br)c(N[C@H](C)C(C)(C)O)n2)cc1C (mixture of isomers) [Example 1.37] , state whether its pIC50 is at least 8.
a: Condition not met
